System: T. cruzi intracellular amastigotes in H9c2 cells
protocolDetails: Rate-of-Kill (RoK) high-content imaging assay, amastigotes per cell (AM/CELL) and curve descriptors
Format: cell-based, Trypanosoma cruzi
measurementSetup: figure 5; in µM
Each record here notes measured MCC50.

{"molSmiles": "CS(=O)(=O)c1cccc(CNC(=O)c2cncc(N3CCN(c4ccc(F)cc4)CC3)c2)c1.O=C(O)C(F)(F)F.O=C(O)C(F)(F)F.O=C(O)C(F)(F)F", "MCC50": 25.9259}
{"molSmiles": "Cc1cccc(N2CCCN(Cc3c[nH]c4ccccc34)CC2)n1", "MCC50": 1.852}
{"molSmiles": "CCN(C)Cc1ccc(N2CCC(NS(=O)(=O)c3ccc4c(c3)CCO4)CC2)nc1", "MCC50": 27.7778}
